The measured values listed here are drawn from patent US20260297129A1.

Assay: Protease stability in simulated intestinal fluids (FaSSIF) (Table 7)
Type: in vitro ADME
Conditions: fassif with pancreatin, 60 min, 37° C., read-out: Remaining percentage of peptide compound, FaSSIF 60 (min)
Numbered stars: 1 amine (or outer) side, 2 acyl side, 3 side chain; on linkers, the order of the positions; unused ones are H or OH. Bridge positions count the residues as written; N and C are the ends. Square brackets hold non-standard residues; d marks the D form. Peptide text beside a SMILES is read from it. * marks the point of attachment. Lys(Me,(CH2)4NMe(CH2)4CO) = CN(CCCCC(=O)[*:3])CCCCN(C)CCCC[C@H](N[*:1])C(=O)[*:2]; Trp(7-Me) = Cc1cccc2c(C[C@H](N)C(=O)O)c[nH]c12; 2Nal = N[C@@H](Cc1ccc2ccccc2c1)C(=O)O; 3Pal = N[C@@H](Cc1cccnc1)C(=O)O; Aun = NCCCCCCCCCCC(=O)O; Thp = NC1(C(=O)O)CCOCC1; Me2NCH2CH2 = CN(C)CC*; Aib = CC(C)(N)C(=O)O; Sar = CNCC(=O)O
observed_property: remaining at 1 h, 1 µM (%)
Numbers only, in %.

CC(=O)NCCCC[C@@H]1NC(=O)[C@H](Cc2c[nH]c3c(C)cccc23)NC(=O)[C@@H](NC(C)=O)CCCCN(C)CCCCN(C)CCCC[C@@H](C(=O)N[C@@H](CC(N)=O)C(=O)N[C@@H](Cc2cccnc2)C(=O)N(C)CC(N)=O)NC(=O)C(C)(C)NC(=O)[C@@H](Cc2ccc3ccccc3c2)NC(=O)[C@H](Cc2ccc(OCCN(C)C)cc2)NC(=O)C2(CCOCC2)NC1=O: 90
Cc1cccc2c(C[C@@H]3NC(=O)CCCCN(C)CCCCN(C)CCCC[C@@H](C(=O)N[C@@H](CC(N)=O)C(=O)N[C@@H](Cc4cccnc4)C(=O)N(C)CC(N)=O)NC(=O)C(C)(C)NC(=O)[C@H](Cc4ccc5ccccc5c4)NC(=O)[C@H](Cc4ccc(OCCN(C)C)cc4)NC(=O)C4(CCOCC4)NC(=O)[C@H](CCC(N)=O)NC3=O)c[nH]c12 [compound 46] ([Trp(7-Me)]Q[Thp]Y(Me2NCH2CH2)[2Nal][Aib][Lys(Me,(CH2)4NMe(CH2)4CO)]N[3Pal][Sar]-NH2; lactam N-7): 88

Please find the next compound below.
Query :: remaining at 1 h, 1 µM lookup needed for CC(=O)NCCCC[C@@H]1NC(=O)[C@H](Cc2c[nH]c3c(C)cccc23)NC(=O)CCCCCCCCCCNC(=O)CC[C@@H](C(=O)N[C@@H](CC(N)=O)C(=O)N[C@@H](Cc2cccnc2)C(=O)N(C)CC(N)=O)NC(=O)C2(CCOCC2)NC(=O)[C@H](Cc2ccc3ccccc3c2)NC(=O)[C@H](Cc2ccc(OCCN(C)C)cc2)NC(=O)C2(CCOCC2)NC1=O [compound 50] ([Aun][Trp(7-Me)]K(Ac)[Thp]Y(Me2NCH2CH2)[2Nal][Thp]EN[3Pal][Sar]-NH2; lactam N-8) , thanks.
Result :: 91

###

Assay: Solubility of peptide compounds in buffer formulations (Table 5)
Type: physicochemical
Conditions: aqueous buffer; 50 mM phosphate buffer pH 7.4, 2 h agitation, target 1 mg/ml; read-out: Solubility, Buffer pH 7.4
Numbered stars: 1 amine (or outer) side, 2 acyl side, 3 side chain; on linkers, the order of the positions; unused ones are H or OH. Bridge positions count the residues as written; N and C are the ends. Square brackets hold non-standard residues; d marks the D form. Peptide text beside a SMILES is read from it. * marks the point of attachment. Lys(Me,(CH2)4NMe(CH2)4CO) = CN(CCCCC(=O)[*:3])CCCCN(C)CCCC[C@H](N[*:1])C(=O)[*:2]; Trp(7-Me) = Cc1cccc2c(C[C@H](N)C(=O)O)c[nH]c12; Trp(1-Me) = Cn1cc(C[C@H](N)C(=O)O)c2ccccc21; NH(2-(3-pyridyl)ethyl) = c1cncc(CCN*)c1; αMeLys(Me2) = CN(C)CCCC[C@](C)(N)C(=O)O; 2Nal = N[C@@H](Cc1ccc2ccccc2c1)C(=O)O; 3Pal = N[C@@H](Cc1cccnc1)C(=O)O; Aun = NCCCCCCCCCCC(=O)O; Thp = NC1(C(=O)O)CCOCC1; Me2NCH2CH2 = CN(C)CC*; Aib = CC(C)(N)C(=O)O; Sar = CNCC(=O)O
For each of the compounds below, state its solubility at 2 h.

CN(C)CCOc1ccc(C[C@@H]2NC(=O)C3(CCOCC3)NC(=O)[C@H](CCC(N)=O)NC(=O)[C@H](Cc3cn(C)c4ccccc34)NC(=O)CCCCN(C)CCCCN(C)CCCC[C@@H](C(=O)NCC(=O)NCCc3cccnc3)NC(=O)C(C)(C)NC(=O)[C@H](Cc3ccc4ccccc4c3)NC2=O)cc1 [compound 25] ([Trp(1-Me)]Q[Thp]Y(Me2NCH2CH2)[2Nal][Aib][Lys(Me,(CH2)4NMe(CH2)4CO)]G-{NH(2-(3-pyridyl)ethyl)}; lactam N-7): ≥ 860 µg/mL
Cc1cccc2c(C[C@@H]3NC(=O)CCCCCCCCCCNC(=O)CC[C@@H](C(=O)N[C@@H](CC(N)=O)C(=O)N[C@@H](Cc4cccnc4)C(=O)N(C)CC(N)=O)NC(=O)C(C)(C)NC(=O)[C@H](Cc4ccc5ccccc5c4)NC(=O)[C@H](Cc4ccc(OCCN(C)C)cc4)NC(=O)C4(CCOCC4)NC(=O)[C@H](CC(C)C)NC3=O)c[nH]c12 [compound 7] ([Aun][Trp(7-Me)]L[Thp]Y(Me2NCH2CH2)[2Nal][Aib]EN[3Pal][Sar]-NH2; lactam N-8): < 10 µg/mL

Let us examine a further case.
Query :: Request the reported solubility at 2 h associated with CC(=O)NCCCC[C@@H]1NC(=O)[C@H](Cc2c[nH]c3c(C)cccc23)NC(=O)CCCCN(C)CCCCN(C)CCCC[C@@H](C(=O)N[C@@H](CO)C(=O)N[C@@H](Cc2cccnc2)C(=O)N(C)CC(N)=O)NC(=O)[C@](C)(CCCCN(C)C)NC(=O)[C@H](Cc2ccc3ccccc3c2)NC(=O)[C@H](Cc2ccc(OCCN(C)C)cc2)NC(=O)C2(CCOCC2)NC1=O [compound 44] ([Trp(7-Me)]K(Ac)[Thp]Y(Me2NCH2CH2)[2Nal][αMeLys(Me2)][Lys(Me,(CH2)4NMe(CH2)4CO)]S[3Pal][Sar]-NH2; lactam N-7)
Result :: ≥ 1120 µg/mL

###

Assay: Solubility of peptide compounds in buffer formulations (Table 5)
Assay type: physicochemical
Conditions: aqueous buffer; 50 mM phosphate buffer pH 7.4, 2 h agitation, target 1 mg/ml; read-out: Solubility, Buffer pH 7.4
Numbered stars: 1 amine (or outer) side, 2 acyl side, 3 side chain; on linkers, the order of the positions; unused ones are H or OH. Bridge positions count the residues as written; N and C are the ends. Square brackets hold non-standard residues; d marks the D form. Peptide text beside a SMILES is read from it. * marks the point of attachment. Lys(Me,(CH2)4NMe(CH2)4CO) = CN(CCCCC(=O)[*:3])CCCCN(C)CCCC[C@H](N[*:1])C(=O)[*:2]; Trp(7-Me) = Cc1cccc2c(C[C@H](N)C(=O)O)c[nH]c12; αMeLys(Me2) = CN(C)CCCC[C@](C)(N)C(=O)O; 2Nal = N[C@@H](Cc1ccc2ccccc2c1)C(=O)O; 3Pal = N[C@@H](Cc1cccnc1)C(=O)O; Thp = NC1(C(=O)O)CCOCC1; Me2NCH2CH2 = CN(C)CC*; Aib = CC(C)(N)C(=O)O; Sar = CNCC(=O)O
observed_property: solubility at 2 h

Past entries and their recorded results:
CC(=O)NCCCC[C@@H]1NC(=O)[C@H](Cc2c[nH]c3c(C)cccc23)NC(=O)CCCCN(C)CCCCN(C)CCCC[C@@H](C(=O)N[C@@H](CC(N)=O)C(=O)N[C@@H](Cc2cccnc2)C(=O)N(C)CC(N)=O)NC(=O)[C@](C)(CCCCN(C)C)NC(=O)[C@H](Cc2ccc3ccccc3c2)NC(=O)[C@H](Cc2ccc(OCCN(C)C)cc2)NC(=O)C2(CCOCC2)NC1=O [compound 47] ([Trp(7-Me)]K(Ac)[Thp]Y(Me2NCH2CH2)[2Nal][αMeLys(Me2)][Lys(Me,(CH2)4NMe(CH2)4CO)]N[3Pal][Sar]-NH2; lactam N-7): ≥ 1170 µg/mL
CC(=O)NCCCC[C@@H]1NC(=O)[C@H](Cc2c[nH]c3c(C)cccc23)NC(=O)[C@@H](NC(C)=O)CCCCN(C)CCCCN(C)CCCC[C@@H](C(=O)N[C@@H](CC(N)=O)C(=O)N[C@@H](Cc2cccnc2)C(=O)N(C)CC(N)=O)NC(=O)C(C)(C)NC(=O)[C@@H](Cc2ccc3ccccc3c2)NC(=O)[C@H](Cc2ccc(OCCN(C)C)cc2)NC(=O)C2(CCOCC2)NC1=O: ≥ 1230 µg/mL

Query :: Record request: solubility at 2 h value, item CN(C)CCOc1ccc(C[C@@H]2NC(=O)C3(CCOCC3)NC(=O)[C@H](CCC(N)=O)NC(=O)[C@H](Cc3c[nH]c4ccccc34)NC(=O)CCCCN(C)CCCCN(C)CCCC[C@@H](C(=O)N[C@@H](CO)C(=O)N[C@@H](Cc3cccnc3)C(=O)N(C)CC(N)=O)NC(=O)C(C)(C)NC(=O)[C@H](Cc3ccc4ccccc4c3)NC2=O)cc1 [compound 41] (WQ[Thp]Y(Me2NCH2CH2)[2Nal][Aib][Lys(Me,(CH2)4NMe(CH2)4CO)]S[3Pal][Sar]-NH2; lactam N-7)
Result :: ≥ 1020 µg/mL
